- TESTED_ON: GDP-bound KRAS wild-type protein (Homo sapiens, UniProt P01116)
- Sequence (P01116 whole entry): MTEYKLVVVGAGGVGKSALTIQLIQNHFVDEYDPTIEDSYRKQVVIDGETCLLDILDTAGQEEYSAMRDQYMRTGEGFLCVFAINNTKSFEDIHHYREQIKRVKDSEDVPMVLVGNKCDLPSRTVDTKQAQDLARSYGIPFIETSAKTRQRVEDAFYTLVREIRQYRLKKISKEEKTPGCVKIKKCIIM
- EXPERIMENTAL_PROTOCOL: Binding to KRAS by surface plasmon resonance (SPR), Single Cycle Kinetics
- CONDITIONS: SPR Single Cycle Kinetics, GDP-bound KRAS wild-type protein, 1:1 binding model; read-out: KRAS KD
*1 amine or outer side, *2 acyl side, *3 side chain or, on linkers, in order; H or OH if unused. Where a SMILES comes first, the peptide text is derived from it. Bridges are numbered along the chain shown (N, C = ends). [ ]: non-standard residue; d: D form. The star is where a group is joined. hPhe(3-Cl-4-CF3) = N[C@@H](CCc1ccc(C(F)(F)F)c(Cl)c1)C(=O)O; X40 = CC(C)CN([C@@H](Cc1ccc(C(F)(F)F)cc1)C(=O)[*:2])[*:1]; NPrPhe(4-CF3) = CCCN[C@@H](Cc1ccc(C(F)(F)F)cc1)C(=O)O; NMeGly(cPent) = CN[C@H](C(=O)O)C1CCCC1; Pro(4S-Me) = C[C@@H]1CN[C@H](C(=O)O)C1; NMeD = CN[C@@H](CC(=O)O)C(=O)O; NMeL = CN[C@@H](CC(C)C)C(=O)O; Morpholide = C1CN(*)CCO1; NMeA = CN[C@@H](C)C(=O)O; Ac5c = NC1(C(=O)O)CCCC1; Aze = O=C(O)[C@@H]1CCN1; Sar = CNCC(=O)O
QUANTITY: Kd (nM)
Kindly provide the numeric value in nM only, without the unit symbol.

Requested field: Kd. Item: CC[C@H](C)[C@@H]1NC(=O)[C@H](CC(C)C)N(C)C(=O)C[C@@H](C(=O)N2CCOCC2)N(C)C(=O)[C@H](C2CCCC2)N(C)C(=O)C2(CCCC2)NC(=O)[C@@H]2CCCN2C(=O)[C@H](CCc2ccc(C(F)(F)F)c(Cl)c2)NC(=O)CN(C)C(=O)[C@H](Cc2ccc(C(F)(F)F)cc2)N(CC(C)C)C(=O)[C@@H]2CCN2C(=O)[C@H](C)N(C)C1=O [PP0107] ([NMeL]I[NMeA][Aze][X40][Sar][hPhe(3-Cl-4-CF3)]P[Ac5c][NMeGly(cPent)][NMeD]-Morpholide; lactam N-11)
1.7

Reported Kd, molecule CC[C@H](C)[C@@H]1NC(=O)[C@H](COC)N(C)C(=O)C[C@@H](C(=O)N2CCCCC2)N(C)C(=O)[C@H](C2CCCC2)N(C)C(=O)C2(CC(C)(C)C2)NC(=O)[C@@H]2C[C@@H](OC(C)C)CN2C(=O)[C@H](CCc2cc(F)c(C(F)(F)F)c(F)c2)NC(=O)CN(C)C(=O)[C@H](Cc2ccc(C(F)(F)F)cc2)N2CC/C=C\C[C@@H](C2=O)N(C)C(=O)CN(C2CC2)C1=O [PP2667] : ____
1.8

Which Kd is listed for CCO[C@@H]1C[C@H]2C(=O)NC3(CCC3)C(=O)N(C)[C@@H](C3CCCC3)C(=O)N(C)[C@H](C(=O)N(C)C)CC(=O)N(C)[C@@H](CC3CCCC3)C(=O)N[C@@H]([C@@H](C)CC)C(=O)N(C)CC(=O)N(C)[C@H]3C/C=C\CCN(C3=O)[C@@H](Cc3ccc(C)cc3)C(=O)N(C)CC(=O)N[C@@H](CCc3cc(C)c(C(F)F)c(C)c3)C(=O)N2C1 [PP2675] ?
4.5

Which Kd reading was recorded for the molecule CCC[C@H]1C(=O)N[C@@H]([C@@H](C)CC)C(=O)N(C2CC2)CC(=O)N(C)[C@H]2C/C=C\CCN(C2=O)[C@@H](Cc2ccc(C)cc2)C(=O)N(C)CC(=O)N[C@@H](CCc2ccc(C(F)(F)F)c(OC)c2)C(=O)N2C[C@H](OCC)C[C@H]2C(=O)NC2(CC(C)(C)C2)C(=O)N(C)[C@@H](CC2CC2)C(=O)N(C)[C@H](C(=O)N(C)C)CC(=O)N1C [PP2803] ?
5.9

What measured Kd goes with CC[C@H](C)[C@@H]1NC(=O)[C@H](CC)N(C)C(=O)C[C@@H](C(=O)N(C)C)N(CC)C(=O)[C@H](C2CCCC2)N(C)C(=O)C2(CCC2)NC(=O)[C@@H]2C[C@@H](N3CCC(F)(F)CC3)CN2C(=O)[C@H](CCc2cc(F)c(C(F)(F)F)c(F)c2)NC(=O)CN(C)C(=O)[C@H](Cc2ccc(C(F)(F)F)cc2)N2CCCC[C@@H](C2=O)N(C)C(=O)CN(C)C1=O [PP0733] ?
0.77

I am curious: what Kd value has been reported for CCCN1C(=O)[C@@H]2CCN2C(=O)[C@H](C)N(C)C(=O)[C@H]([C@@H](C)CC)NC(=O)[C@H](CC(C)C)N(C)C(=O)C[C@@H](C(=O)N2CCOCC2)N(C)C(=O)[C@H](C2CCCC2)N(C)C(=O)C2(CCCC2)NC(=O)[C@@H]2C[C@H](C)CN2C(=O)[C@H](CCc2ccc(C(F)(F)F)c(Cl)c2)NC(=O)CN(C)C(=O)[C@@H]1Cc1ccc(C(F)(F)F)cc1 [PP0455] ([NMeL]I[NMeA][Aze][NPrPhe(4-CF3)][Sar][hPhe(3-Cl-4-CF3)][Pro(4S-Me)][Ac5c][NMeGly(cPent)][NMeD]-Morpholide; lactam N-11) ?
0.18
